# MEASURED_ON: Albumin (Bos taurus)
# ASSAY_REMARKS: bovine serum albumin binders on microarray, profiling panel, artefact control for SMM control protein annotation, biochemical, small-molecule microarray, Alexa647 label, 635/667 nm fluorescence (AID 1118);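 further: score merges 667 nm emission intensity and signal-to-noise per printed compound spot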
# ASSAY_SETUP: BSA-A647 binding, fluorescence 635 nm, higher = more signal
Returns 1 (yes) if the recorded composite z-score is greater than or equal to -0.2, and 0 (no) otherwise.

Observe how each entry below is paired with its result.
COMPOUND: C=CCOC(=O)[C@H]1[C@@H]2C(=O)O[C@@H](c3ccccc3)[C@@H](c3ccccc3)N2[C@@H](c2ccc(OCCOC(=O)[C@H]3C[C@H]4C(=O)N[C@@H](CCCCNC(C)=O)C(=O)N4[C@H]3c3cccc(OCCO)c3)cc2)[C@]12C(=O)Nc1ccccc12
LABEL: 1 (yes)
--
COMPOUND: C=CC1(C(=O)OC)CC=C(C(=O)OC)CC1 (centres undefined)
LABEL: 1 (yes)
--
COMPOUND: CC1CC/C=C\[C@H]2OC34C=CCN(Cc5ccccc5)C(=O)[C@H]3N(CCCO)C(=O)[C@@H]4C2C(=O)O1 (some centres undefined)
LABEL: 1 (yes)
--
COMPOUND: CCC(CC)C(O)C1C=CC2C(=O)NC(=O)C2N1Nc1ccccn1 (centres undefined)
LABEL: 1 (yes)
--
COMPOUND: C[C@H]1C2[C@H](Cc3ccccc3)NC(=O)[C@]23C(=O)N[C@H](Cc2ccccc2)C(=O)N2CCC[C@H]2C(=O)NC/C=C\C/C=C/C3[C@@H]2O[C@]12C (some centres undefined)
LABEL: 1 (yes)

Query :: Does composite z-score meet or surpass -0.2 for COC(=O)[C@@]1(Cc2ccccc2)[C@H]2c3cc(C(=O)N4CCCC4)n(Cc4ccc(S(C)(=O)=O)cc4)c3C[C@H]2CN1C(=O)c1ccccc1 ?
Result :: 1 (yes)

Query :: Does composite z-score meet or surpass -0.2 for C=C(CC1([C@@H](NP(=O)(c2ccccc2)c2ccccc2)[C@H]2C[C@@H]2CCCC)CC1)c1ccccc1 ?
Result :: 1 (yes)

Query :: Does composite z-score meet or surpass -0.2 for CN1C(=O)C2C=CC(C(O)c3ccco3)N(Nc3ccccc3)C2C1=O (centres undefined) ?
Result :: 1 (yes)

Query :: Does composite z-score meet or surpass -0.2 for COCCOC(=O)N1C(=O)[C@@]2(c3cc(C#CCCO)ccc31)[C@H](C(N)=O)[C@H]1C(=O)O[C@H](c3ccccc3)[C@H](c3ccccc3)N1[C@@H]2c1ccc(O)cc1 ?
Result :: 1 (yes)

Query :: Does composite z-score meet or surpass -0.2 for C[C@H]1NC(=O)[C@@]23C(=O)N[C@@H](Cc4ccccc4)C2[C@H](C)[C@@]2(C)O[C@H]2C3/C=C/C/C=C\CNC(=O)[C@@H]2CCCN2C1=O (some centres undefined) ?
Result :: 0 (no)

Query :: Does composite z-score meet or surpass -0.2 for C=CCN1C(=O)[C@]2(O[C@H](CCn3cc([C@H](O)c4ccccc4)nn3)[C@@H]([Si](C)(C)c3ccc(OC)cc3)[C@@H]2C)c2cc(N3CCC3=O)ccc21 ?
Result :: 1 (yes)

Query :: Does composite z-score meet or surpass -0.2 for COCCOC(=O)N1C(=O)[C@@]2(c3cc(C#CCNC(N)=O)ccc31)[C@H](C(=O)Nc1nc3ccccc3s1)[C@H]1C(=O)O[C@H](c3ccccc3)[C@H](c3ccccc3)N1[C@@H]2c1ccc(OCCO)cc1 ?
Result :: 0 (no)

Query :: Does composite z-score meet or surpass -0.2 for CCCCN1CC=CC23O[C@@H]4C=CCCOC(=O)C4[C@H]2C(=O)N(CCCCCCO)[C@@H]3C1=O (some centres undefined) ?
Result :: 1 (yes)

Query :: Does composite z-score meet or surpass -0.2 for COC(=O)C[C@H]1O[C@]2(C(=O)N(C)c3ccccc32)[C@@H](C)[C@@H]1[Si](C)(C)F ?
Result :: 0 (no)
